Recorded DC50, one value per entry.
System tested: BTK (Homo sapiens, UniProt Q06187)
Construct: BTK Degradative Activity of Exemplary Compounds of the Present Disclosure in a RAMOS Cell Line; host or cells: RAMOS
Sequence (Q06187 whole entry): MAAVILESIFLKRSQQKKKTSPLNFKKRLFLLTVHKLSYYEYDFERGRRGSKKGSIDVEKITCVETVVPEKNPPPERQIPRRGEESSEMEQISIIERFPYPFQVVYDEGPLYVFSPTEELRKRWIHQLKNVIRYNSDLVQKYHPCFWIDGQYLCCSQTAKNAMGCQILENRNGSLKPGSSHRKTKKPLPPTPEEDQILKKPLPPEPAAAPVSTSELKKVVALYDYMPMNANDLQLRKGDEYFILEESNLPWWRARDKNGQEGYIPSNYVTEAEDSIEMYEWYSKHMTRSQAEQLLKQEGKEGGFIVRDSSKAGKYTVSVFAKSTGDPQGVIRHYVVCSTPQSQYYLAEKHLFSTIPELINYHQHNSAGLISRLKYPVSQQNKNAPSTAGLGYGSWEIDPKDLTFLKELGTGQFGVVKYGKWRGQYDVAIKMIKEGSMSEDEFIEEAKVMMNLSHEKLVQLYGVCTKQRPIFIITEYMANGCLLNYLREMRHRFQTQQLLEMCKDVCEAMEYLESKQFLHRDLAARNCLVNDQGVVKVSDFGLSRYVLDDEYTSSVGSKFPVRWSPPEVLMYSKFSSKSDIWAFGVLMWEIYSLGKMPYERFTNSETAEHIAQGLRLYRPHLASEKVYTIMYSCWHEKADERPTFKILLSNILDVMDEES
Procedure summary: BTK degradative activity in a RAMOS cell line (Western blot)
Format: cell-based
Measurement conditions: 6 hours after administration, read-out: RAMOS BTK Degradation DC50

Look over these answered cases.
compound="O=C1CCC(N2C(=O)c3ccc(OCCCN4CCN(c5ccc(C(=O)N6CCC[C@@H](Nc7ncnc8[nH]cc(C(=O)c9ccc(Oc%10ccccc%10)cc9Cl)c78)C6)cn5)CC4)cc3C2=O)C(=O)N1 (stereo partly shown)" system_tested="BTK (Homo sapiens, UniProt Q06187)" endpoint_value="≥ 100 nM"
compound="COc1ccc(F)cc1C(=O)NCc1ccc(-c2nn(C3CCN(C(=O)c4ccc(CN5CCN(c6ccc7c(c6)CN([C@H]6CCC(=O)NC6=O)C7=O)CC5)cc4)C3)c3ncnc(N)c23)cc1 (stereo partly shown)" system_tested="BTK (Homo sapiens, UniProt Q06187)" endpoint_value="< 10 nM"
compound=COc1ccc(C(=O)N2CCN(CC3CCN(c4ccc(Nc5ncnc6[nH]cc(C(=O)c7ccc(Oc8ccccc8)cc7Cl)c56)cc4F)CC3)CC2)cc1N1CCC(=O)NC1=O system_tested="BTK (Homo sapiens, UniProt Q06187)" endpoint_value="≥ 100 nM"
compound="O=C1CCC(N2C(=O)c3ccc(N4CCN(CCCCCN5CCC(Nc6ncnc7[nH]cc(C(=O)c8ccc(Oc9ccccc9)cc8Cl)c67)CC5)CC4)cc3C2=O)C(=O)N1 (stereo not shown)" system_tested="BTK (Homo sapiens, UniProt Q06187)" endpoint_value="< 10 nM"

Lab note: next compound to report on.
Incoming: Which DC50 value belongs to `COc1ccc(F)cc1C(=O)NCc1ccc(-c2nn(C3CN(c4ccc(CN5CCN(c6ccc7c(c6)CN([C@H]6CCC(=O)NC6=O)C7=O)CC5)cc4)C3)c3ncnc(N)c23)cc1` ?
Outgoing: < 10 nM

* * *

System tested: BTK (Homo sapiens, UniProt Q06187)
Construct: BTK Degradative Activity of Exemplary Compounds of the Present Disclosure in a RAMOS Cell Line; host or cells: RAMOS
Procedure summary: BTK degradative activity in a RAMOS cell line (Western blot)
Assay type: cell-based
Measurement conditions: 6 hours after administration, read-out: RAMOS BTK Degradation DC50
Procedure: RAMOS (ATCC) cells were plated in 24-well plates at 8×10^5 cells/well in the RPMI growth medium containing 10% heat-inactivated FBS and 1× Penicillin Streptomycin, and then incubated at 37° C. overnight. […] Upon completion, the cells were collected by centrifugation and lysed in Laemmli sample buffer (1×; VWR International). […] The bands were quantified using Image Studio™ Software (Licor). […]
Recorded DC50, one value per entry.

Look over these answered cases.
compound="O=C1CCC(N2C(=O)c3ccc(N4CCN(CCCN5CCC(Nc6ncnc7[nH]cc(C(=O)c8ccc(Oc9ccccc9)cc8Cl)c67)CC5)CC4)cc3C2=O)C(=O)N1 (stereo not shown)" endpoint_value="10 to 100 nM"
compound=COc1ccc(F)cc1C(=O)NCc1ccc(-c2nn(-c3ccc(N4CC(CN5CCN(c6ccc7c(c6)CN([C@H]6CCC(=O)NC6=O)C7=O)CC5)C4)c(F)c3)c3ncnc(N)c23)cc1 endpoint_value="< 10 nM"
compound=O=C1CC[C@H](N2C(=O)c3ccc(N4CCN(CC5CCN(C(=O)N6CCC[C@@H](Nc7ncnc8[nH]cc(C(=O)c9ccc(Oc%10ccccc%10)cc9Cl)c78)C6)CC5)CC4)cc3C2=O)C(=O)N1 endpoint_value="10 to 100 nM"
compound=COc1ccc(C(=O)N2CCN(CCCCCC(=O)N3CCC(Nc4ncnc5[nH]cc(C(=O)c6ccc(Oc7ccccc7)cc6Cl)c45)CC3)CC2)cc1N1CCC(=O)NC1=O endpoint_value="10 to 100 nM"
compound="O=C1CCC(N2C(=O)c3ccc(N4CCN(CCCCCCN5CCC(Nc6ncnc7[nH]cc(C(=O)c8ccc(Oc9ccccc9)cc8Cl)c67)CC5)CC4)cc3C2=O)C(=O)N1 (stereo not shown)" endpoint_value="≥ 100 nM"
compound="O=C1CCC(N2Cc3c(C#CCCCCC(=O)N4CCC(Nc5ncnc6[nH]cc(C(=O)c7ccc(Oc8ccccc8)cc7Cl)c56)CC4)cccc3C2=O)C(=O)N1 (stereo not shown)" endpoint_value="≥ 100 nM"

Incoming: Which DC50 value belongs to O=C1CCC(N2C(=O)c3ccc(OCCCCCN4CCN(c5ccc(C(=O)N6CCC[C@@H](Nc7ncnc8[nH]cc(C(=O)c9ccc(Oc%10ccccc%10)cc9Cl)c78)C6)cn5)CC4)cc3C2=O)C(=O)N1 (stereo partly shown) ?
Outgoing: ≥ 100 nM

Incoming: Which DC50 value belongs to O=C1CCC(N2C(=O)c3ccc(N4CCN(CCCCC(=O)N5CCC[C@@H](Nc6ncnc7[nH]cc(C(=O)c8ccc(Oc9ccccc9)cc8Cl)c67)C5)CC4)cc3C2=O)C(=O)N1 (stereo partly shown) ?
Outgoing: 10 to 100 nM

Incoming: Which DC50 value belongs to `O=C1CC[C@H](N2C(=O)c3ccc(N4CCN(CCCCCCC(=O)N5CCC(Nc6ncnc7[nH]cc(C(=O)c8ccc(Oc9ccccc9)cc8Cl)c67)CC5)CC4)cc3C2=O)C(=O)N1` ?
Outgoing: 10 to 100 nM

Incoming: Which DC50 value belongs to O=C1CCC(N2C(=O)c3ccc(N4CCN(CCCCCCCN5CCC[C@@H](Nc6ncnc7[nH]cc(C(=O)c8ccc(Oc9ccccc9)cc8Cl)c67)C5)CC4)cc3C2=O)C(=O)N1 (stereo partly shown) ?
Outgoing: 10 to 100 nM

Incoming: Which DC50 value belongs to `COc1ccc(C(=O)N2CCN(CCC3CCN(c4ccc(Nc5ncnc6[nH]cc(C(=O)c7ccc(Oc8ccccc8)cc7Cl)c56)cc4F)CC3)CC2)cc1N1CCC(=O)NC1=O` ?
Outgoing: ≥ 100 nM

Incoming: Which DC50 value belongs to `COc1ccc(F)cc1C(=O)NCc1ccc(-c2nn(-c3ccc(N4CC(CN5CCN(c6ccc7c(c6)CN([C@H]6CCC(=O)NC6=O)C7=O)CC5)C4)nc3)c3ncnc(N)c23)cc1` ?
Outgoing: < 10 nM

Incoming: Which DC50 value belongs to O=C1CCC(N2C(=O)c3ccc(N4CCN(CC5CCN(c6ccc(Nc7ncnc8[nH]cc(C(=O)c9ccc(Oc%10ccccc%10)cc9Cl)c78)cc6F)CC5)CC4)cc3C2=O)C(=O)N1 (stereo not shown) ?
Outgoing: ≥ 100 nM

Incoming: Which DC50 value belongs to O=C1CCC(N2Cc3c(C#CCCCCCCC(=O)N4CCC(Nc5ncnc6[nH]cc(C(=O)c7ccc(Oc8ccccc8)cc7Cl)c56)CC4)cccc3C2=O)C(=O)N1 (stereo not shown) ?
Outgoing: ≥ 100 nM

Incoming: Which DC50 value belongs to O=C1CCC(N2Cc3cc(N4CCN(CCCCCCC(=O)N5CCC[C@@H](Nc6ncnc7[nH]cc(C(=O)c8ccc(Oc9ccccc9)cc8Cl)c67)C5)CC4)ccc3C2=O)C(=O)N1 (stereo partly shown) ?
Outgoing: 10 to 100 nM

Incoming: Which DC50 value belongs to COc1ccc(F)cc1C(=O)NCc1ccc(-c2nn(C3CCN(c4ccc(CN5CCN(c6ccc7c(c6)CN([C@H]6CCC(=O)NC6=O)C7=O)CC5)nc4)C3)c3ncnc(N)c23)cc1 (stereo partly shown) ?
Outgoing: ≥ 100 nM
